# Test system: Escherichia coli
# protocol-notes: Antibacterial activity against wild type Escherichia coli assessed as growth inhibition in Luria broth at 5 mM after 8 to 18 hrs by broth dilution test
# Type: functional, organism-based
Activity calls are given as the source filed them. The calls are words filed in the database; no cut-off is given here. Peptide text beside a SMILES is read from it. * marks the point of attachment. X7 = CC[C@H](C)[C@H](N*)C(=O)NS(=O)(=O)OC[C@H]1O[C@@H](n2cnc3c(=O)[nH]c(N)nc32)[C@H](O)[C@@H]1O; X5 = CC[C@H](C)[C@H](N*)C(=O)NS(=O)(=O)OC[C@H]1O[C@@H](n2ccc(N)nc2=O)[C@H](O)[C@@H]1O; For = O=C*
observable: growth inhibition (GI)

• CC[C@H](C)[C@H](NC(=O)[C@H](C)NC(=O)[C@H](CC(N)=O)NC(=O)CNC(=O)[C@@H](NC(=O)[C@H](CCCNC(=N)N)NC(=O)[C@H](CCSC)NC=O)[C@@H](C)O)C(=O)NS(=O)(=O)OC[C@H]1O[C@@H](n2ccc(N)nc2=O)[C@H](O)[C@@H]1O (For-MRTGNA-X5) = inactive
• CC[C@H](C)[C@H](NC(=O)[C@H](C)NC(=O)[C@H](CC(N)=O)NC(=O)CNC(=O)[C@@H](NC(=O)[C@H](CCCNC(=N)N)NC(=O)[C@H](CCSC)NC=O)[C@@H](C)O)C(=O)NS(=O)(=O)OC[C@H]1O[C@@H](n2cnc3c(=O)[nH]c(N)nc32)[C@H](O)[C@@H]1O (For-MRTGNA-X7) = inactive

Value source: ChEMBL document CHEMBL3259721
